Sourced from patent US9029386B2

Measurement Target: EphA8(h) (Homo sapiens, UniProt P29322)
Construct: purchased Upstate Biotechnology (Dundee, UK), KinaseProfiler service
Sequence (P29322 28-1005): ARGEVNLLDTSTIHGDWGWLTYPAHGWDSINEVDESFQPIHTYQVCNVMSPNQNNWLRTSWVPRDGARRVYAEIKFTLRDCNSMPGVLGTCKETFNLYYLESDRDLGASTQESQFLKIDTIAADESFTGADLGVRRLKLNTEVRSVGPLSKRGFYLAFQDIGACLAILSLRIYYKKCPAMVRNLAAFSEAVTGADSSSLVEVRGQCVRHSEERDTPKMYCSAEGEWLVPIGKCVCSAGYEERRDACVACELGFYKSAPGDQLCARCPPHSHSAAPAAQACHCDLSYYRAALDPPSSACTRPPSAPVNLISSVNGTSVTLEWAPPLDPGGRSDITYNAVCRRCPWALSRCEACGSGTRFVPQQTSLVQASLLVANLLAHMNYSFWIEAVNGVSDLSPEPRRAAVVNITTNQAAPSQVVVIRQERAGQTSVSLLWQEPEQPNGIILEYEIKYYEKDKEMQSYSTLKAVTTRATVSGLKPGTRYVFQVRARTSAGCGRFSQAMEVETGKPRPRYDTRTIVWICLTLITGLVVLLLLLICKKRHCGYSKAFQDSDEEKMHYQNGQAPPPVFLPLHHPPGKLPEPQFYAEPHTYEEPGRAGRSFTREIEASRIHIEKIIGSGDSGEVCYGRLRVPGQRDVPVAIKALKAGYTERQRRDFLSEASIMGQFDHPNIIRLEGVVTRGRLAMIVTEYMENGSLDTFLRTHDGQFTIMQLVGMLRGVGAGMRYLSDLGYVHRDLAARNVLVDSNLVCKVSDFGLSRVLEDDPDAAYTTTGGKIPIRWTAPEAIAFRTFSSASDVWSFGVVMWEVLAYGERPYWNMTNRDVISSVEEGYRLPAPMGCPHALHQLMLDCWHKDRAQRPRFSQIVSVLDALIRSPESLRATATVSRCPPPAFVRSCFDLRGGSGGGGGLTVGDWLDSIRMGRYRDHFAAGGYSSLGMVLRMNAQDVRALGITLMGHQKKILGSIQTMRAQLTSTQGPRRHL
Assay Comment: KinaseProfiler assay (Upstate), EphA8
Type: biochemical
Settings: 0.1 μM
Property: inhibition at 0.1 µM (%)
Please give a number only; it is taken to be in %.

Answered cases to consult:
{"Compound": "C[C@H](Nc1cncc(-c2ccc(N3CCN(C)CC3)cc2)n1)c1cccc(NC(=O)c2cccc(C(F)(F)F)c2)c1 [Compound 148]", "Measurement Target": "EphA8(h) (Homo sapiens, UniProt P29322)", "Test Result": 81}
{"Compound": "Cc1cccc(C(=O)Nc2cccc([C@H](C)Nc3cncc(-c4cccc(N5CCOCC5)c4)n3)c2)c1 [Compound 147]", "Measurement Target": "EphA8(h) (Homo sapiens, UniProt P29322)", "Test Result": 71}
{"Compound": "C[C@H](Nc1cncc(-c2cccc(N3CCOCC3)c2)n1)c1cccc(NC(=O)c2cccc(C(F)(F)F)c2)c1 [Compound 149]", "Measurement Target": "EphA8(h) (Homo sapiens, UniProt P29322)", "Test Result": 81}
{"Compound": "Cc1cccc(C(=O)Nc2cccc([C@H](C)Nc3cncc(-c4ccc(N5CCN(C)CC5)cc4)n3)c2)c1 [Compound 129]", "Measurement Target": "EphA8(h) (Homo sapiens, UniProt P29322)", "Test Result": 42}
{"Compound": "C[C@H](Nc1cncc(Cl)n1)c1cccc(NC(=O)c2cccc(C(F)(F)F)c2)c1 [Compound 114]", "Measurement Target": "EphA8(h) (Homo sapiens, UniProt P29322)", "Test Result": 67}
{"Compound": "Cc1cccc(C(=O)Nc2ccc(C)c([C@H](C)Nc3cncc(Cl)n3)c2)c1 [Compound 168]", "Measurement Target": "EphA8(h) (Homo sapiens, UniProt P29322)", "Test Result": 91}
{"Compound": "Cc1cccc(C(=O)Nc2cccc([C@H](C)Nc3cncc(-n4ccnc4)n3)c2)c1 [Compound 143]", "Measurement Target": "EphA8(h) (Homo sapiens, UniProt P29322)", "Test Result": 30}
{"Compound": "Cc1cccc(C(=O)Nc2cccc([C@H](C)Nc3cncc(C(N)=O)n3)c2)c1 [Compound 133]", "Measurement Target": "EphA8(h) (Homo sapiens, UniProt P29322)", "Test Result": 7}

What does the record list as inhibition at 0.1 µM for Cc1cccc(C(=O)Nc2cccc([C@H](C)Nc3cncc(-c4ccc(S(N)(=O)=O)cc4)n3)c2)c1 [Compound 77] ?
66
